Recorded values, source the supplement of paper PMC12042874.

Assay: amyloid nucleation score (Sup35N fusion, yeast selection) (log enrichment); library NNK2; higher = more nucleation; inactive = no reads after selection;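 further: zero at mode of non-aggregating sequences after 7 days selection at 30°C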
Overview of reported amyloid nucleation score across a group of substances:

| Substance | amyloid nucleation score |
| --- | --- |
| HQVFPAKAGLPALVYLLGFY | 0.602 |
| FLSLLR | -1.05 |
| PATDPWCS | -0.14 |
| SVLSFMRYLCGWQA | 6.51 |
| NDWCRGENITALWDGYGSGL | 0.597 |
| VLEKRFIRL | -0.785 |
| MPPGCRMIFALIVVVIQFNF | 0.04 |
| YFNGERFTRFISMEE | -1.21 |
| GTGMTYAIWLSGIGRMRFYY | -0.816 |
| TTENNCLVREKVVYGWMWSS | 0.149 |
| KPFELEIRGKGQRHVEVV | 1.61 |
| FAIHLKLMYVGTDFSNVRDI | -1.15 |
| FYMTYWISPMVIQWVFTDYA | 5.57 |
| SYFMTLIVPGRLLWIDLEGV | -0.823 |
| FHCNPIS | -0.277 |
| RILFNRS | 0.107 |

----------
Assay: amyloid nucleation score (Sup35N fusion, yeast selection) (log enrichment); library NNK1; higher = more nucleation; inactive = no reads after selection
Kind request: treat 0.3 as inclusive, so amyloid nucleation score at 0.3 or higher is Yes, anything lower is No.

| Residue string | Class label |
| --- | --- |
| YFLTHRTGRYNMGDSSVRTL | No |
| MLGKNSSCESNMEYVFRSCL | No |
| FDLFVKGECFVVRPLATSTY | No |
| CTLILSQQFSSIPVHFILYM | Yes |
| IRVINYFVWSWTLTIIADFI | No |
| GTIWYITLAGRFNDVIIYTM | Yes |
| SLMSLLLNFVNLTNNNLSPF | No |
| LAPMDLCGGSVAFR | Yes |
| MYTSRQNSARNRKLNSIAGF | No |
| RIIYGCCAVRFARSMAKHPM | No |
| LITYLRLFYRITVRTG | Yes |
| IFWTFRGITMPSC | Yes |
| DDWIVRHCFNCLSVWMYLRY | No |
| TDGIAVSFTNHDVWMVDAFV | No |
| RPRSDSRGTRKDNGFDDVKL | Yes |
| DNVLALDGWNLINCLTT | No |
| SVIYHRCLFLI | Yes |
| GSVAFFNLNMLRVLYIIYER | Yes |
| VYFYVQPNGFMEIGASMIAA | No |
| FDNVVENHSS | No |
| CRNSTVGITLIGWTSHFFNI | Yes |
| LSPWSKTSIYCNLLPCIVSR | Yes |
| DVLLCSIRTSSHDMIIMRKR | Yes |
| RESSAAVDTCTILKMTEKVG | No |
| WIFTREQAFFSDRCLAASSK | Yes |
| GVCVEFCLRGSRFWLMKNKA | Yes |
| FLVQVAWFLPAGGYGDNFCC | No |
| WNQADGIS | No |
| SLSCTTLCLEYYRYCVRTYG | No |
| SRWPTHGSQIFVLTESVLTN | No |
| EPYDSLGYPNEDLGTGVFWG | No |
